# assayed-system: HLA-B*27:05
# experimental-details: IEDB peptide-MHC binding, purified MHC/direct/fluorescence; filed as Kd, often an IC50 or EC50 that approximates it; bounds were set here for any values at or beyond the usual limits of such assays
# test-settings: source organism: Pseudomonas aeruginosa

>  <primary-sequence>
SEYKAAGYL

>  <Kd>
≥ 20 µM

$$$$
>  <primary-sequence>
GEDDDMLPW

>  <Kd>
≥ 20 µM

$$$$

====

# assayed-system: HLA-A*03:01
# experimental-details: IEDB peptide-MHC binding, purified MHC/direct/fluorescence; filed as Kd, often an IC50 or EC50 that approximates it; bounds were set here for any values at or beyond the usual limits of such assays
# test-settings: source organism: Giardia lamblia ATCC 50803
pKd: −log10 of the molar value.
property-measured: pKd

>  <primary-sequence>
IRNLVKRYK

>  <measurement>
≤ 4.70

$$$$
>  <primary-sequence>
ITASKDLCF

>  <measurement>
≤ 4.70

$$$$
>  <primary-sequence>
RVHSFFIQY

>  <measurement>
7.17

$$$$
>  <primary-sequence>
RTRFFCIPK

>  <measurement>
7.56

$$$$
>  <primary-sequence>
AAFLDDNAF

>  <measurement>
≤ 4.70

$$$$
>  <primary-sequence>
AEFWDVFLS

>  <measurement>
≤ 4.70

$$$$
>  <primary-sequence>
AIPYFYKGK

>  <measurement>
≤ 4.70

$$$$
>  <primary-sequence>
RPALVVDTP

>  <measurement>
≤ 4.70

$$$$
